Recorded MIC Ea values for a group of molecules are listed next.
# System: Erwinia amylovora PMV6076
# Assay summary: MIC, in vitro growth inhibition
# Assay type: cell-based
# Recorded conditions: TSB, 25°C, 48 h, OD 600 nm; tested at 3.1, 6.2, 12.5, 25, 50 μM; three replicates, experiment repeated twice; MIC = lowest concentration with no growth
Where a SMILES comes first, the peptide text is derived from it. Side-chain parts run from the residue outwards. The star is where a group is joined. Hexanoyl = CCCCCC(=O)*; Butyryl = CCCC(=O)*

Molecule	Quantity kind	Assay value
CCCC(=O)NCCCC[C@@H]1NC(=O)[C@H](CCCCN)NC(=O)[C@H](CC(C)C)NC(=O)[C@H](CCCCN)NC(=O)[C@H](CCCCN)NC(=O)[C@H](CCC(N)=O)NC(=O)[C@H](CC(C)C)NC(=O)[C@H](CCCCN)NC(=O)[C@H](CCCCN)NC(=O)[C@H](Cc2c[nH]cn2)NC1=O [BPC718, c(KKLKK(CO-C3H7)HKKLQ)] (cyclo(HKKLQKKLKK(Butyryl)))	MIC Ea	>50 µM
CCCCCC(=O)NCCCC[C@@H]1NC(=O)[C@H](CCCCN)NC(=O)[C@H](CCC(N)=O)NC(=O)[C@H](CC(C)C)NC(=O)[C@H](CCCCN)NC(=O)[C@H](CCCCN)NC(=O)[C@H](Cc2c[nH]cn2)NC(=O)[C@H](CCCCN)NC(=O)[C@H](CCCCN)NC(=O)[C@H](CC(C)C)NC1=O [BPC682] (cyclo(HKKLQKK(Hexanoyl)LKK))	MIC Ea	25 to 50 µM

# context switch: different molecule, same MIC Ea
// MIC Ea lookup, key: CCCCCC(=O)N[C@@H](CCCCN)C(=O)N[C@@H](CC(C)C)C(=O)NCCCC[C@@H]1NC(=O)[C@H](CCCCN)NC(=O)[C@H](CC(C)C)NC(=O)[C@H](CCCCN)NC(=O)[C@H](CCCCN)NC(=O)[C@H](CCC(N)=O)NC(=O)[C@H](CC(C)C)NC(=O)[C@H](CCCCN)NC(=O)[C@H](CCCCN)NC(=O)[C@H](Cc2c[nH]cn2)NC1=O [BPC676, c(KKLKK(LK-CO-nC5H11)HKKLQ)] (cyclo(HKKLQKKLKK([Leu-Lys-Hexanoyl])))
25 to 50 µM

Taken from paper PMC4805166.
